Experimental Details: antimalarial activity against Dd2 strain (AID 2302);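 note: 0% = DMSO untreated growth and 100% = chloroquine plus artemisinin killed control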
Condition: P. falciparum Dd2 in RBCs, LDH growth readout, 72 h; at 2 µM; stronger effect = higher value
Activity calls are given as the source filed them.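 Rule for the calls: active = growth inhibition above 50% at the single 2 µM test dose, taken to imply half-maximal potency below 2 µM; inactive = the rest.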
Readout Type: growth inhibition

Would you please look over these solved cases?
| Compound | growth inhibition |
| --- | --- |
| Cc1cccc2[nH]c(-c3cccc(-c4ccc(CNCCCN5CCCC5=O)cc4)c3)nc12 | 38% (inactive) |
| COC(=O)c1cccc(CNCc2ccc(-c3ccc(-c4nc5ccc(C(F)(F)F)cc5[nH]4)s3)cc2)c1 | 96% (active) |
| Cc1ccc(C)c2c1[nH]c1ccc(C3=NCCN3)cc12 | -6% (inactive) |
| COc1ccc(O)c(C(=O)c2cc(C(=O)NCCc3ccccc3)c(=O)n(CCc3ccccc3)c2)c1 | 18% (inactive) |
| CCCc1ccc(S(=O)(=O)NC2CCN(c3ccnc(Nc4ccc(OC)cc4)n3)C2)cc1 (stereo not drawn) | 45% (inactive) |
| CS(=O)(=O)Nc1ccc2c(C3CCN(CCC4CCN(C(=O)/C=C/c5ccc(Cl)c(Cl)c5)CC4)CC3)c[nH]c2c1 | 63% (active) |
| O=C(Nc1ccc(OC2CCN(Cc3ccc(F)cc3)CC2)c(Cl)c1)c1ccco1 | 95% (active) |
| CCN(CC)CCN(Cc1ccc(-c2ccc(C(F)(F)F)cc2)cc1)C(=O)Cn1c(CCc2ccc(F)c(F)c2F)nc(=O)c2ccccc21 | 66% (active) |
| COc1ccc2ccc(F)c(CC(=O)N3CCOC(CNCc4cccc(-c5ccsc5)n4)C3)c2n1 (stereo not drawn) | 1% (inactive) |
| Cc1cccc2[nH]c(-c3cccc(-c4cccc(NC(=O)c5cnn6cccnc56)c4)c3)nc12 | 17% (inactive) |

Item: `COc1ccc([N+](=O)[O-])cc1N(Cc1ccccc1-c1ccccc1)S(=O)(=O)c1ccc(C(F)(F)F)cc1` | growth inhibition: 66% (active)

Item: COc1ccc(CC(=O)NC(CCN2CCC3(CCc4ccccc43)CC2)c2ccc(Cl)c(Cl)c2)cc1 (stereo not drawn) | growth inhibition: 75% (active)

Item: `Fc1ccccc1CNc1ncc(-c2ccsc2)c(-c2nccs2)n1` | growth inhibition: 71% (active)

Item: `O=C(NCCNc1ccnc(Nc2ccc(F)cc2)n1)c1cc2ccccc2s1` | growth inhibition: 34% (inactive)

Item: `COc1cc(C(=O)Nc2cccc(-c3nc4ccccc4[nH]3)c2)ccc1OC(C)=O` | growth inhibition: 37% (inactive)

====

Tested On: L-lactate dehydrogenase (Plasmodium falciparum (isolate CDC / Honduras))
Experimental Details: PfLDH activity inhibition – cell lysate, 3D7 strain, counter-screen for P. falciparum growth inhibition project (AID 2304);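 note: 0% = vehicle and 100% = reference inhibitor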
Condition: P. falciparum 3D7 crude extract, LDH APAD/NBT absorbance; at 2 µM; stronger effect = higher value
Here, each record is paired with measured inhibition data.
// return numeric value only (unit: %, not printed)

| Compound | inhibition / % |
| --- | --- |
| O=[N+]([O-])c1ccc(NC(=NCCOc2ccccc2)Nc2ccccc2Br)c(O)c1 | -9 |

Log: L-lactate dehydrogenase (Plasmodium falciparum (isolate CDC / Honduras)), compound `CCCCC(=O)Nc1ccc(Nc2nc(C)cc(N3CCCC3)n2)cc1` , inhibition = 4

Log: L-lactate dehydrogenase (Plasmodium falciparum (isolate CDC / Honduras)), compound `COc1ccc(CNCCCCCNCc2ccc(Cl)c(Cl)c2)cc1Cl` , inhibition = 0

Log: L-lactate dehydrogenase (Plasmodium falciparum (isolate CDC / Honduras)), compound `O=C(O)c1cc(OCC(O)COc2ccc(O)c(C(=O)O)c2)ccc1O` , inhibition = 5

Log: L-lactate dehydrogenase (Plasmodium falciparum (isolate CDC / Honduras)), compound `COc1c(I)cc(Cc2cnc(N)nc2N)cc1I` , inhibition = -8

Log: L-lactate dehydrogenase (Plasmodium falciparum (isolate CDC / Honduras)), compound `COc1ccc(CNC2CCN(C)CC2)cc1-c1ccc(S(=O)(=O)NC2CCC2)s1` , inhibition = 5

====

Here, each record is paired with measured growth inhibition data.
Experimental Details: inhibition of 3D7 malaria parasite growth – strain 3D7 (AID 2306);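 note: 0% = DMSO wells and 100% = chloroquine plus artemisinin control wells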
Condition: P. falciparum 3D7 erythrocytic growth, LDH absorbance, 72 h; at 2 µM; stronger effect = higher value
// return numeric value only (unit: %, not printed)

Would you please look over these solved cases?
| Compound | Unit Descriptor | growth inhibition |
| --- | --- | --- |
| O=C(COc1ccccc1Cc1ccccc1)Nc1cc(Cl)ccc1-n1cncn1 | % | 92 |
| O=C(/C=C/c1ccc(Cl)c(Cl)c1)NCCCCN1CCCN(C(=O)Nc2ccc(C(F)(F)F)cc2)CC1 | % | 94 |
| CCN(CC)CCN(Cc1ccc(-c2ccc(C(F)(F)F)cc2)cc1)C(=O)CN1C(CCc2cccc(F)c2F)=NS(=O)(=O)c2ccccc21 | % | 101 |
| CCn1ncc2c(N3CCCC3=O)cc(C(=O)N[C@@H](Cc3ccccc3)[C@H](O)CNC(C)(C)c3cccc(OC)c3)cc21 | % | 98 |
| O=C(COc1ccc(Cl)c(Cl)c1)NCCCCCN1CCCN(C(=O)Nc2cc(Cl)cc(Cl)c2)CC1 | % | 89 |

Item: `CCOc1ccccc1C=CC(=O)Nc1ccc2nc(N3CCN(C)CC3)cc(C)c2c1` | growth inhibition: 102

Item: CCOc1cc(Cl)c(C(C)NC(=O)c2ccccc2)cc1OCC (centres undefined) | growth inhibition: 91

Item: `COc1ccc(C(=O)Nc2cc(Br)c3c(c2)CNCC3)cc1Br` | growth inhibition: 97

Item: `CC(C)(C)c1ccc2nc(-c3ccc(C(=O)NC4CCN(Cc5ccccc5)CC4)s3)[nH]c2c1` | growth inhibition: 91

====

Here, each record is paired with measured growth inhibition data.
Experimental Details: inhibition of 3D7 malaria parasite growth – strain 3D7 (AID 2306);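 note: 0% = DMSO wells and 100% = chloroquine plus artemisinin control wells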
Condition: P. falciparum 3D7 erythrocytic growth, LDH absorbance, 72 h; at 2 µM; stronger effect = higher value
// return numeric value only (unit: %, not printed)

Would you please look over these solved cases?
| Compound | Readout Type | Unit Descriptor | Measured |
| --- | --- | --- | --- |
| COC(=O)C(=O)c1c(-c2ccccc2)c(-c2ccc(OC)c(OC)c2)c2c3cc(OC)c(OC)cc3ccn12 | growth inhibition | % | 97 |
| CCCCCCNC(=O)C1Cc2c([nH]c3ccccc23)C2(CCN(CCc3ccccc3)CC2)N1 (stereo not given) | growth inhibition | % | 96 |
| CCN(CC(C)O)C(=O)c1ccc(-c2cccc(-c3nc4c(C)cccc4[nH]3)c2)cc1 (stereo not given) | growth inhibition | % | 100 |
| N#Cc1cccc(-c2cccc(C(=O)NC3CCC(CCN4CCc5ccc(C#N)cc5CC4)CC3)c2)c1 (stereo not given) | growth inhibition | % | 99 |

Item: `c1ccc(Oc2ccc(Nc3ccnc4cc(-c5ccc(CN6CCNCC6)o5)ccc34)cc2)nc1` | growth inhibition: 100

====

Experimental Details: antimalarial activity against Dd2 strain (AID 2302);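 note: 0% = DMSO untreated growth and 100% = chloroquine plus artemisinin killed control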
Condition: P. falciparum Dd2 in RBCs, LDH growth readout, 72 h; at 2 µM; stronger effect = higher value
Activity calls are given as the source filed them.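 The calls were made as follows: active = growth inhibition above 50% at the single 2 µM test dose, taken to imply half-maximal potency below 2 µM; inactive = the rest.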
Readout Type: growth inhibition

Would you please look over these solved cases?
| Molecule | growth inhibition |
| --- | --- |
| Cc1cc(CNCCCCCCNCc2ccc(Cl)cc2)ccc1O | 0% (inactive) |
| COc1ccc(NC(=O)[C@H](Cc2ccccc2)Nc2cc(C)nc(NCCc3cccnc3)n2)cc1 | 5% (inactive) |
| COc1ccc2nccc([C@@H](O)CN3CCC(NC(=O)C(c4cc5ccccc5o4)N4CCN(c5ccccc5)CC4)CC3)c2c1 (some centres undefined) | 99% (active) |

Item: `O=C(Nc1ccc(-c2nc3ccccc3[nH]2)cc1)c1ccc(-c2cccc([N+](=O)[O-])c2)o1` | growth inhibition: 97% (active)

Item: `CNCCNCc1ccc(-c2ccc(-c3nc4c(C)cccc4[nH]3)cc2)cc1` | growth inhibition: 79% (active)

Item: CC(C#N)Cc1ccc(-c2cnc(N)c3cc(-c4ccnc(N)n4)ccc23)cc1 (centres undefined) | growth inhibition: 62% (active)

Item: CC(C)N1CCN(C(CN2CCN(CCCOc3cccc4ccccc34)CC2)c2ccc(F)cc2)CC1 (centres undefined) | growth inhibition: 75% (active)

Item: `O=C(Nc1cccc(C(F)(F)F)c1)Nc1nc2ccc([N+](=O)[O-])cc2s1` | growth inhibition: 76% (active)

Item: COc1cc(C(=O)N2CCOC(CCN3CC[C@@H]4c5ccccc5C[C@@H]43)(c3ccc(Cl)c(Cl)c3)C2)cc(OC)c1OC (some centres undefined) | growth inhibition: 82% (active)

Item: `COc1ccccc1NC(=S)N/N=C/c1ccc(O)cc1O` | growth inhibition: 80% (active)

Item: `CCc1[nH]nc(C(=O)NC2CCN(CC3(c4ccc(OC)cc4)CCCCC3)CC2)c1C` | growth inhibition: 90% (active)

Item: O=C(Nc1cccc(C(F)(F)F)c1)c1ccc(S(=O)(=O)NC2CCN(CC3CCCCC3)C2)cc1 (centres undefined) | growth inhibition: -3% (inactive)

Item: `Cc1ccc(S(=O)(=O)N(C)c2ccccc2C(=O)Nc2ccccc2Oc2ccccc2)cc1` | growth inhibition: 90% (active)

Item: CC(=O)c1c[nH]c2ccc(/C=C/C(=O)NC3CCC(CCN4CCc5ccc(C#N)cc5CC4)CC3)cc12 (centres undefined) | growth inhibition: 98% (active)

Item: `O=C(/C=C/c1ccc(Cl)cc1)NCCCCCN1CCC(C(=O)Nc2cccc(Cl)c2)CC1` | growth inhibition: -6% (inactive)

Item: `NCc1ccc(CNCc2ccc(-c3ccc(-c4nc5ccc(F)cc5[nH]4)cc3)cc2)cc1` | growth inhibition: 99% (active)
